Where these numbers come from: patent US20260207767A1

# study.system: T1, cynoPD-1 His (AcroBiosystems PD1-C5223) (cynomolgus monkey, UniProt B0LAJ3 25-170)
# T1 construct: also called cPD-1; cynomolgus PD-1 His-tagged
# T1 sequence (B0LAJ3 entry or part of it limits assumed): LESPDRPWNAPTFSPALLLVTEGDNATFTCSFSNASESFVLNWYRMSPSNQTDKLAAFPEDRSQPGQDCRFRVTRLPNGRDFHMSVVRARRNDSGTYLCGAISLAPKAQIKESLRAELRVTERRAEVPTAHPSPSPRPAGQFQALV
# test.details: SPR; second ka column, taken as cynoPD-1
measured.property: kon (M⁻¹ s⁻¹)
Use M⁻¹ s⁻¹ as the unit, but write only the number.

# binder, kon / M⁻¹ s⁻¹
data = [
    ("XVT458-z2-m5 (antibody, V domains shown, IgG format; also called z2_XVT458m5) VH: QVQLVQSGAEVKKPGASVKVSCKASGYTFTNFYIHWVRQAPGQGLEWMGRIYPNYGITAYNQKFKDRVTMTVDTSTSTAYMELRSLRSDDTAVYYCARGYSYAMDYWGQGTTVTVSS VL: DIQMTQSPSSVSASVGDRVTITCSASQGIYGDLNWYQQKPGKAPKLLIYHTSSRHSGVPSRFSGSGSGTDFTLTISSLQPEDFATYYCQAYSKDLLTFGGGTKLEIK", 111000),
    ("XVT458-z2-m1 (antibody, V domains shown, IgG format; also called z2-XVT458-m1; z2_XVT458m1) VH: QVQLVQSGAEVKKPGASVKVSCKASGYTFTNFYIHWVRQAPGQGLEWMGSIYPNYGFTAYNQKFKDRVTMTVDTSTSTAYMELRSLRSDDTAVYYCARGYSYAMDYWGQGTTVTVSS VL: DIQMTQSPSSVSASVGDRVTITCSASQGIWGDLNWYQQKPGKAPKLLIYHTSQLHSDVPSRFSGSGSGTDFTLTISSLQPEDFATYYCQGYSKDLLTFGGGTKLEIK", 185000),
    ("XVT458-z2-m3 (antibody, V domains shown, IgG format; also called z2_XVT458m3) VH: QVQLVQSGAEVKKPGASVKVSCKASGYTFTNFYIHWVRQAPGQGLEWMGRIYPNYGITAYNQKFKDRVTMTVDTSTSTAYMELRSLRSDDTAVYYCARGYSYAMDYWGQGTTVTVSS VL: DIQMTQSPSSVSASVGDRVTITCSASQGISGDLNWYQQKPGKAPKLLIYHTSQRHSDVPSRFSGSGSGTDFTLTISSLQPEDFATYYCQGYSKDLLTFGGGTKLEIK", 138000),
]

Now for another entry.
Prompt: Field request: kon | item: z2-XVT458 (antibody, IgG1, V domains shown, full hIgG1; also called XVT458-z2; GH + T071V) VH: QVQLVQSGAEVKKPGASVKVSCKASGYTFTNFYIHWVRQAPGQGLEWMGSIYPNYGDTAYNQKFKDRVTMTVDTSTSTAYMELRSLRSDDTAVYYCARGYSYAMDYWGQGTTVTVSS VL: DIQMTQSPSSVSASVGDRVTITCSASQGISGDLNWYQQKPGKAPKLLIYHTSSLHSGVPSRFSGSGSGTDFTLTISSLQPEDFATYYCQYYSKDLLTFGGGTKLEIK
Response: 73000
